# protocol: physchem
# condition-description: octanol/water
# Description: Lipophilicity, log P of the compound
parameter-measured: logP

// solved cases for logP follow
[[record]]
structure_as_smiles = "CCN1CCC(Cn2cncc2CNc2ccc(Cl)c(-c3ccccc3)c2)CC1"
parameter_measured = "logP"
reading = 4.3

[[record]]
structure_as_smiles = "Nc1cc(-c2ccccc2)ccc1Cn1cncc1CNc1ccc(F)c(-c2ccccc2)c1"
parameter_measured = "logP"
reading = 5.5

[[record]]
structure_as_smiles = "COc1cc(-c2ccccc2)ccc1Cn1cncc1CNc1ccc(-c2nc3ccccc3s2)c(-c2ccccc2)c1"
parameter_measured = "logP"
reading = 8.2

[[record]]
structure_as_smiles = "Cc1cc(NCc2cncn2Cc2ccc(-c3ccccc3)cc2F)ccc1F"
parameter_measured = "logP"
reading = 5.3

[[record]]
structure_as_smiles = "Cc1cc(NCc2cncn2Cc2ccc(-c3ccccc3)cc2Cl)ccc1F"
parameter_measured = "logP"
reading = 5.8


[1] O=C(O)c1cc(-c2ccccc2)ccc1Cn1cncc1CNc1ccc(-c2nc3ccccc3s2)c(-c2ccccc2)c1
[2] Nc1cc(N2CCOCC2)ccc1Cn1cncc1CNc1ccc(F)c(F)c1
[3] Fc1ccc(Cn2cncc2CNc2ccc(F)c(F)c2)c(F)c1
[4] Nc1cc(-c2ccccc2)ccc1Cn1cncc1CNc1ccc(Cl)c(Cl)c1
[ask] Order the records so the highest logP appears first and the lowest last. API: response body holds the labels in the requested order.
[reply] 1, 4, 3, 2
(1: 7.2, 4: 5, 3: 3.5, 2: 2.2)

----------
# protocol: Inhibition of recombinant Trypanosoma cruzi sterol 14-alpha-demethylase by spectrophotometry
parameter-measured: pKd
Scale note: pKd = -log10(concentration in M).

[ask] Provide one value: measured pKd of COc1ccc(NCc2cncn2Cc2ccc(-c3ccccc3)cc2N)nc1-c1ccccc1
[reply] 6.31

----------
# protocol: physchem
# condition-description: octanol/water
parameter-measured: logP

The examples below pair each entry with its known result.
[[record]]
structure_as_smiles = "c1ccc(-c2cc(NCc3cncn3Cc3ccc(-c4ccco4)cc3)ccc2-c2nc3ccccc3s2)cc1"
reading = 7.4

[[record]]
structure_as_smiles = "Clc1ccc(NCc2cncn2Cc2ccc(-c3ccccc3)cc2)cc1N1CCCCC1"
reading = 6.1

[[record]]
structure_as_smiles = "Nc1cc(-c2ccccc2)ccc1Cn1cncc1CNc1ccc(F)c(-c2c(F)cccc2F)c1"
reading = 5.8

[[record]]
structure_as_smiles = "Cc1ccc(-c2ccc(Cn3cncc3CNc3ccc(-c4nc5ccccc5s4)c(-c4ccccc4)c3)cc2)cc1"
reading = 8.9

[[record]]
structure_as_smiles = "Cc1cc(NCc2cnc(C)n2Cc2ccc(-c3ccccc3)cc2N)ccc1F"
reading = 4.5

[[record]]
structure_as_smiles = "CC1CCN(CCOc2ccc(NCc3cncn3Cc3ccc(-c4ccccc4)cc3)cc2-c2ccccc2)CC1"
reading = 5.9

[[record]]
structure_as_smiles = "c1ccc(-c2cc(NCc3cncn3Cc3ccc(-c4ccccn4)cc3)ccc2-c2nc3ccccc3s2)cc1"
reading = 7.5

[[record]]
structure_as_smiles = "Clc1ccc(NCc2cncn2Cc2ccc(-c3ccccc3)cc2)cc1-c1cccnc1"
reading = 5.6

[[record]]
structure_as_smiles = "Oc1cc(-c2ccccc2)ccc1Cn1cncc1CNc1ccc(-c2nc3ccccc3s2)c(-c2ccccc2)c1"
reading = 8

[[record]]
structure_as_smiles = "Cc1ncc(CNc2ccc(F)cc2)n1Cc1ccc(-c2ccccc2)cc1N"
reading = 4


[I] Nc1cc(-c2ccccc2)ccc1Cn1cncc1CNc1ccc(-c2nc3ccccc3s2)c(-c2ccccc2)c1
[II] Nc1ccc(-c2cc(NCc3cncn3Cc3ccc(-c4ccccc4)cc3N)ccc2Cl)cc1
[III] Fc1ccc(NCc2cncn2Cc2ccc(F)cc2F)cc1
[ask] In this exercise, place the 3 molecules in ascending sequence of their recorded logP. Answer format: the labels, in the requested order.
[reply] III, II, I

----------
# protocol: physchem
# condition-description: octanol/water
parameter-measured: logP

[[record]]
structure_as_smiles = "Nc1cc(-c2ccccc2)ccc1Cn1cncc1CNc1ccc(Cl)cc1"
parameter_measured = "logP"
reading = 4.3

[[record]]
structure_as_smiles = "N#Cc1ccc(-c2cc(NCc3cncn3Cc3ccc(-c4ccccc4)cc3)ccc2-c2nc3ccccc3s2)cc1"
parameter_measured = "logP"
reading = 8.2

[[record]]
structure_as_smiles = "COc1ccc(NCc2cncn2Cc2ccccc2)nc1-c1ccccc1"
parameter_measured = "logP"
reading = 4.2

[[record]]
structure_as_smiles = "Nc1cc(-c2ccccc2)ccc1Cn1cncc1CNc1ccc(Cl)c(-n2cccc2)c1"
parameter_measured = "logP"
reading = 4.8

[[record]]
structure_as_smiles = "Cc1ccc(NCc2cncn2Cc2ccc(-c3ccccc3)cc2N)cc1-c1c(F)cccc1F"
parameter_measured = "logP"
reading = 6.2


[1] Fc1ccc(NCc2cncn2Cc2ccc(-c3ccccc3)cc2Cl)cc1Cl
[2] Cc1ncc(CNc2ccc(F)c(F)c2)n1Cc1ccc(-c2ccccc2)cc1N
[ask] # returns the entry with the larger logP; inputs 1 and 2 Returns: label corresponding to the selected item.
[reply] 1
(1: 5.9, 2: 4.1)

----------
# protocol: physchem
# condition-description: octanol/water
parameter-measured: logP

[[record]]
structure_as_smiles = "c1ccc(-c2ccc(Cn3cncc3CNc3ccc(NCCN4CCOCC4)c(-c4ccccc4)c3)cc2)cc1"
reading = 5.9

[[record]]
structure_as_smiles = "Cc1cc(NCc2cncn2Cc2ccc(-c3ccccc3)cc2N)ccc1Cl"
reading = 4.4

[[record]]
structure_as_smiles = "Fc1ccc(NCc2cncn2Cc2ccc(-c3ccccc3)cc2)cc1-c1c(F)cccc1F"
reading = 6.6

[[record]]
structure_as_smiles = "COc1ccc(NCc2cncn2Cc2ccc(-c3ccccc3)cc2)nc1-c1ccccc1"
reading = 5.8

[[record]]
structure_as_smiles = "Fc1ccc(NCc2cncn2Cc2ccc(-c3ccccc3)cc2F)cc1Cl"
reading = 5.4

[[record]]
structure_as_smiles = "Clc1ccc(NCc2cncn2Cc2ccc(-c3ccccc3)cc2)cc1-n1cccc1"
reading = 5.6

[[record]]
structure_as_smiles = "Nc1cc(-c2ccccc2)ccc1Cn1cncc1CNc1ccc(F)c(Cl)c1"
reading = 4.3

[[record]]
structure_as_smiles = "Oc1ccccc1-c1ccc(Cn2cncc2CNc2ccc(-c3nc4ccccc4s3)c(-c3ccccc3)c2)cc1"
reading = 8.1

[[record]]
structure_as_smiles = "Nc1ccc(-c2cc(NCc3cncn3Cc3ccc(-c4ccccc4)cc3)ccc2-c2nc3ccccc3s2)cc1"
reading = 7.6

[[record]]
structure_as_smiles = "Nc1cc(Cl)ccc1Cn1cncc1CNc1ccc(F)c(-c2ccccc2)c1"
reading = 4.5

[[record]]
structure_as_smiles = "Oc1ccc(-c2cc(NCc3cncn3Cc3ccc(-c4ccccc4)cc3)ccc2-c2nc3ccccc3s2)cc1"
reading = 8.1

[[record]]
structure_as_smiles = "c1ccc(-c2cc(NCc3cncn3Cc3ccc(-c4cccs4)cc3)ccc2-c2nc3ccccc3s2)cc1"
reading = 8.2

[[record]]
structure_as_smiles = "c1ccc(-c2ccc(Cn3cncc3CNc3ccc(OCCN4CCOCC4)c(-c4ccccc4)c3)cc2)cc1"
reading = 5.9

